Can you tell me pKd for the items I'm about to list?
- MEASURED ON: T1, IL-2Rβ (UniProt P14784 27-240, limits assumed, biotinylated (site not stated))
- T1 construct: also called CD122; IL-2Rbeta
- T1 sequence (looked up): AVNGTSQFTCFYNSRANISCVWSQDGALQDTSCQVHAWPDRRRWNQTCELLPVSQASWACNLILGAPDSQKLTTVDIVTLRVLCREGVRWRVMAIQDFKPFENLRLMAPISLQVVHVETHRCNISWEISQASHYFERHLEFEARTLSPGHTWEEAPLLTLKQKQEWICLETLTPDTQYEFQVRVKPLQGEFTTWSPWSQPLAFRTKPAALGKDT
- PROCEDURE SUMMARY: SPR Biacore T100, steady-state; biotinylated IL-2Rβ on chip
Note on units: pKd is unitless, being -log10 of a concentration expressed in mol/L.

For reference, reported pKd for in silico designed IL-2 variant SEQ ID NO: 8, MSA fusion protein (ligand, not shown: large carriers; small tags and cut ends) APTSSSTKKTQLQLEHLLLDLQMILNMLNNYDNPKLTRLLTFKFYMPKKATSLKHLQCLEEELKPLEEALNAADSTDERIRDVVSNINVFVLELKGSETTFMCEYADETATIIEFLNRWITFCQSIISTLT stands at 7.85

For reference, reported pKd for in silico designed IL-2 variant SEQ ID NO: 17, MSA fusion protein (ligand, not shown: large carriers; small tags and cut ends) APTSSSTKKTQLQLEHLLLDLQMILNMLNNYDNPKLTRLLTFKFYMPKKATSLKHLQCLEEELKPLEEALNLAQSKNFHLDPRDLISNINVIVLELKGSETTFMCEYADETATIIEFLNRWITFCQSIISTLT stands at 6.57

For reference, reported pKd for in silico designed IL-2 variant SEQ ID NO: 11, MSA fusion protein (ligand, not shown: large carriers; small tags and cut ends) APTSSSTKKTQLQLEHLLLDLQMILNMLNNYSNPKLTRLLTFKFYMPKKATSLKHLQCLEEELKPLEEALNLASDDQDKVRDVVSNINVFVLELKGSETTFMCEYADETATIIEFLNRWITFCQSIISTLT stands at 7.64

For reference, reported pKd for in silico designed IL-2 variant SEQ ID NO: 4, MSA fusion protein (ligand, not shown: large carriers; small tags and cut ends) APTSSSTKKTQLQLEHLLLDLQMILNMLNNYDNPKLTRLLTFKFYMPKKATSLKHLQCLEEELKPLEEALNQAGDDPKTIRDLISNINVIVLELKGSETTFMCEYADETATIIEFLNRWITFCQSIISTLT stands at 6.41
